Where do the numbers come from? From patent US20260102359A1.

- System: hDMFa myofibroblast cells
Where a name gives a salt, the structure may show the parent alone.
READOUT: Compound Myofibroblast Cytotoxicity Activity

1) CCN(CC)C(=O)C1(c2ccccc2)CC1CN (stereo not shown) [Cmpd 676, Milnacipran HCl] :: ++++
2) C=Cc1c(C)c2cc3nc(cc4[nH]c(cc5nc(cc1[nH]2)C(C)=C5CCC(=O)O)c(CCC(=O)OC)c4C)[C@@]1(C)C3=CC=C(C(=O)OC)[C@H]1C(=O)OC :: +++++
3) Cl.N=C(N)c1ccccc1 [Cmpd 163, Benzamidine HCl] :: +++
4) CC/C(=C(/CC)c1ccc(O)cc1)c1ccc(O)cc1 :: +++
5) Cc1c(C)c2c(c(C)c1O)CCC(C)(COc1ccc(CC3SC(=O)NC3=O)cc1)O2 (stereo not shown) :: +++
6) Cc1cnc(Nc2ccc(OCCN3CCCC3)cc2)nc1Nc1cccc(S(=O)(=O)NC(C)(C)C)c1 [Cmpd 937, TG101348 (SAR302503)] :: ++++
7) CSCC[C@H](N)C(=O)O [Cmpd 600, L-Methionine] :: ++++
8) CCCC(=O)OCOC(=O)C1=C(C)NC(C)=C(C(=O)OC)C1c1cccc(Cl)c1Cl (stereo not shown) [Cmpd 279, Clevidipine Butyrate] :: ++
9) CN(C)CCN(Cc1ccc(Cl)cc1)c1ccccn1 [Cmpd 250, Chloropyramine hydrochloride] :: ++
10) C#C[C@]1(OC(C)=O)CC[C@H]2[C@@H]3CCC4=C[C@@H](OC(C)=O)CC[C@@H]4[C@H]3CC[C@@]21C [Cmpd 439, Ethynodiol diacetate] :: ++
